- MEASURED_ON: HLA-B*15:01
- ASSAY_METHOD_TEXT: IEDB peptide-MHC binding, purified MHC/competitive/fluorescence; filed as Kd, often an IC50 or EC50 that approximates it; bounds were set here for any values at or beyond the usual limits of such assays
- PROTOCOL_CONDITIONS: source organism: Human immunodeficiency virus 1
MEASURED_PARAMETER: pKd
When answering, recall that pKd equals minus log10 of the concentration in mol/L, and write that number alone.

Item `RSLFNTVAVLY` : provide pKd
6.04

---

- MEASURED_ON: HLA-A*01:01
- ASSAY_METHOD_TEXT: IEDB peptide-MHC binding, purified MHC/competitive/fluorescence; filed as Kd, often an IC50 or EC50 that approximates it; bounds were set here for any values at or beyond the usual limits of such assays
- PROTOCOL_CONDITIONS: source organism: Human immunodeficiency virus 1
pKd: −log10 of the molar value.
MEASURED_PARAMETER: pKd

// fetch pKd; item: `RSLFNTVAVLY` ; system: HLA-A*01:01
≤ 4.70

---

- MEASURED_ON: HLA-A*30:02
- ASSAY_METHOD_TEXT: IEDB peptide-MHC binding, purified MHC/competitive/radioactivity; filed as Kd, often an IC50 or EC50 that approximates it; bounds were set here for any values at or beyond the usual limits of such assays
- PROTOCOL_CONDITIONS: source organism: Dengue virus 4 Philippines/H241/1956
MEASURED_PARAMETER: pKd
When answering, recall that pKd equals minus log10 of the concentration in mol/L, and write that number alone.

Item `RNPAQEDDQY` : provide pKd
4.80

---

- MEASURED_ON: HLA-B*35:01
- ASSAY_METHOD_TEXT: IEDB peptide-MHC binding, purified MHC/competitive/radioactivity; filed as Kd, often an IC50 or EC50 that approximates it; bounds were set here for any values at or beyond the usual limits of such assays
- PROTOCOL_CONDITIONS: source organism: Vaccinia virus WR
MEASURED_PARAMETER: Kd (µM)
Give your result in µM as a bare value.

| POLYMER_SEQUENCE | Kd, µM |
| --- | --- |
| VPSVNEYHML | 4.41 |

Attention now shifts to the item below.
Item `LPHLCLDYKV` : provide Kd
10.1

---

- MEASURED_ON: HLA-B*57:01
- ASSAY_METHOD_TEXT: IEDB peptide-MHC binding, purified MHC/direct/fluorescence; filed as Kd, often an IC50 or EC50 that approximates it; bounds were set here for any values at or beyond the usual limits of such assays
- PROTOCOL_CONDITIONS: source organism: Mammarenavirus brazilense
MEASURED_PARAMETER: Kd

// fetch Kd; item: `EFKSRFFVM` ; system: HLA-B*57:01
≥ 20 µM

---

- MEASURED_ON: HLA-B*46:01
- ASSAY_METHOD_TEXT: IEDB peptide-MHC binding, purified MHC/direct/fluorescence; filed as Kd, often an IC50 or EC50 that approximates it; bounds were set here for any values at or beyond the usual limits of such assays
- PROTOCOL_CONDITIONS: source organism: Orthohantavirus hantanense
pKd: −log10 of the molar value.
MEASURED_PARAMETER: pKd

Item `IRKPKHLYV` : provide pKd
≤ 4.70

---

- MEASURED_ON: HLA-C*15:02
- ASSAY_METHOD_TEXT: IEDB peptide-MHC binding, purified MHC/direct/fluorescence; filed as Kd, often an IC50 or EC50 that approximates it; bounds were set here for any values at or beyond the usual limits of such assays
- PROTOCOL_CONDITIONS: source organism: Yersinia pestis Nepal516
MEASURED_PARAMETER: pKd
When answering, recall that pKd equals minus log10 of the concentration in mol/L, and write that number alone.

Item `RAMRMVYYL` : provide pKd
7.47

---

- MEASURED_ON: HLA-A*31:01
- ASSAY_METHOD_TEXT: IEDB peptide-MHC binding, purified MHC/direct/fluorescence; filed as Kd, often an IC50 or EC50 that approximates it; bounds were set here for any values at or beyond the usual limits of such assays
- PROTOCOL_CONDITIONS: source organism: Mycobacterium tuberculosis
pKd: −log10 of the molar value.
MEASURED_PARAMETER: pKd

| POLYMER_SEQUENCE | pKd |
| --- | --- |
| MPRLSRNAA | ≤ 4.70 |

Attention now shifts to the item below.
Item `RPPMVTSGL` : provide pKd
≤ 4.70

---

- MEASURED_ON: HLA-A*02:01
- ASSAY_METHOD_TEXT: IEDB peptide-MHC binding, purified MHC/competitive/radioactivity; filed as Kd, often an IC50 or EC50 that approximates it; bounds were set here for any values at or beyond the usual limits of such assays
- PROTOCOL_CONDITIONS: source organism: Dengue virus 1 Brazil/97-11/1997
MEASURED_PARAMETER: pKd
When answering, recall that pKd equals minus log10 of the concentration in mol/L, and write that number alone.

Item `IMAIGIVSI` : provide pKd
7.88

---

- MEASURED_ON: HLA-A*24:03
- ASSAY_METHOD_TEXT: IEDB peptide-MHC binding, purified MHC/direct/fluorescence; filed as Kd, often an IC50 or EC50 that approximates it; bounds were set here for any values at or beyond the usual limits of such assays
- PROTOCOL_CONDITIONS: source organism: Orthohantavirus hantanense
In this section we review reported Kd values for a set of sequences.
Give your result in nM as a bare value.

| POLYMER_SEQUENCE | VALUE_UNITS | OBSERVED_RESULT |
| --- | --- | --- |
| LYILGLFKF | nM | 115 |

Attention now shifts to the item below.
Item `NYYAPRIQF` : provide Kd
7.4

---

- MEASURED_ON: HLA-A*68:01
- ASSAY_METHOD_TEXT: IEDB peptide-MHC binding, purified MHC/competitive/radioactivity; filed as Kd, often an IC50 or EC50 that approximates it; bounds were set here for any values at or beyond the usual limits of such assays
- PROTOCOL_CONDITIONS: source organism: Vaccinia virus WR
pKd: −log10 of the molar value.
Classification field. Basis: pKd. Definitions: lo (below 6), med (6 to below 7), hi (7 or more)

These recorded examples may help you get a feel for the data.
| POLYMER_SEQUENCE | ANSWER_LABEL |
| --- | --- |
| DIALALEQY | med |
| LFSKNILKY | med |
| YTISSESLVY | hi |

Which of the defined bands does the recorded pKd of `SVSIILANER` sit within?
hi

Which of the defined bands does the recorded pKd of `MTLVPVLEKK` sit within?
hi

Which of the defined bands does the recorded pKd of `MTLDDLAIK` sit within?
hi

Which of the defined bands does the recorded pKd of `MSRVRISLIY` sit within?
med

Which of the defined bands does the recorded pKd of `TTLLNETAK` sit within?
hi

---

- MEASURED_ON: HLA-B*07:02
- ASSAY_METHOD_TEXT: IEDB peptide-MHC binding, purified MHC/direct/fluorescence; filed as Kd, often an IC50 or EC50 that approximates it; bounds were set here for any values at or beyond the usual limits of such assays
- PROTOCOL_CONDITIONS: source organism: Brucella abortus 2308
MEASURED_PARAMETER: Kd

Item `RMIESRMSK` : provide Kd
≥ 20 µM

---

- MEASURED_ON: HLA-A*31:01
- ASSAY_METHOD_TEXT: IEDB peptide-MHC binding, purified MHC/direct/fluorescence; filed as Kd, often an IC50 or EC50 that approximates it; bounds were set here for any values at or beyond the usual limits of such assays
- PROTOCOL_CONDITIONS: source organism: Bacillus anthracis
pKd: −log10 of the molar value.
MEASURED_PARAMETER: pKd

Item `KLYVNGKAY` : provide pKd
≤ 4.70

---

- MEASURED_ON: HLA-B*27:20
- ASSAY_METHOD_TEXT: IEDB peptide-MHC binding, purified MHC/competitive/fluorescence; filed as Kd, often an IC50 or EC50 that approximates it; bounds were set here for any values at or beyond the usual limits of such assays
- PROTOCOL_CONDITIONS: source organism: Escherichia coli O157:H7 str. EDL933
MEASURED_PARAMETER: pKd
When answering, recall that pKd equals minus log10 of the concentration in mol/L, and write that number alone.

Item `RMMGVKYLM` : provide pKd
7.47

---

- MEASURED_ON: HLA-A*01:01
- ASSAY_METHOD_TEXT: IEDB peptide-MHC binding, purified MHC/direct/fluorescence; filed as Kd, often an IC50 or EC50 that approximates it; bounds were set here for any values at or beyond the usual limits of such assays
- PROTOCOL_CONDITIONS: source organism: Influenza A virus (A/quail/Hong Kong/FY298/00(H9N2))
pKd: −log10 of the molar value.
MEASURED_PARAMETER: pKd

Item `ALTLNTMTK` : provide pKd
≤ 4.70
